- System: A375 cells
- protocol summary: Tumor cell line proliferation assay (CellTiter Glo), A375
- Type: cell-based
- condition info: Homo sapiens, A-375, 96 h, read-out: A375 (V599E) Cell Proliferation IC50
The entries below come with measured IC50 values attached.
observable: IC50

> print(dat)
                                    molecule     test.result
 1  [2H]C([2H])(c1ccccc1)N1CCC[C@@H](N2Cc3cc4c(-c5ccnc(C)c5)n[nH]c4cc3NC2=O)C1        ≤ 250 nM
 2  Cc1cc(-c2n[nH]c3cc4c(cc23)CN(Cc2ccc(F)cc2F)C(=O)N4)ccn1  250 to 1000 nM
 3  Cc1cc(-c2n[nH]c3cc4c(cc23)CN([C@@H]2CCCN(Cc3csc(C)c3)C2)C(=O)N4)ccn1        ≤ 250 nM
 4  COc1ncc(-c2n[nH]c3cc4c(cc23)CN([C@@H]2CCCN(Cc3c(F)cccc3F)C2)C(=O)N4)cn1        ≤ 250 nM
 5  Cc1cc(-c2n[nH]c3cc4c(cc23)CN(Cc2ccc(C#N)cc2)C(=O)N4)ccn1       > 1000 nM
 6  COc1ncc(-c2n[nH]c3cc4c(cc23)CN(Cc2ccc(F)c(Cl)c2)C(=O)N4)cn1  250 to 1000 nM
 7  Cc1cc(-c2n[nH]c3cc4c(cc23)CN(Cc2ccc(F)c(F)c2)C(=O)N4)ccn1  250 to 1000 nM
 8  CC(c1ccccc1)c1cc2cc3c(-c4ccnnc4)n[nH]c3cc2[nH]c1=O (stereo not shown)  250 to 1000 nM
 9  Cc1cc(-c2n[nH]c3cc4c(cc23)CN(C2CCNCC2)C(=O)N4)ccn1       > 1000 nM
10  Cc1cc(-c2n[nH]c3cc4[nH]c(=O)n(Cc5ccccc5)c4cc23)ccn1       > 1000 nM
11  Cc1cc(-c2n[nH]c3cc4c(cc23)CN([C@@H]2CCCN(C(C)c3ccc(F)cc3)C2)C(=O)N4)ccn1 (stereo partly shown)  250 to 1000 nM
12  Cc1cc(-c2n[nH]c3cc4c(cc23)CN(Cc2cccs2)C(=O)N4)cc(C)n1  250 to 1000 nM
13  Cc1cc(-c2n[nH]c3cc4c(cc23)CN(Cc2ccc(F)c(Cl)c2)C(=O)N4)ccn1  250 to 1000 nM
14  Cc1ncc(-c2n[nH]c3cc4c(cc23)CN([C@@H]2CCCN(Cc3ccccc3)C2)C(=O)N4)cn1        ≤ 250 nM
15  Cc1cc(-c2n[nH]c3cc4c(cc23)CN(CC2CCCCC2)C(=O)N4)ccn1        ≤ 250 nM
16  Cc1cc(-c2n[nH]c3cc4[nH]c(=O)n(Cc5ccc(F)c(Cl)c5)c(=O)c4cc23)ccn1       > 1000 nM

----------
- System: phospho-p90 RSK (RSK1 Thr359/Ser363) in A375 (Braf V600E) cells
- protocol summary: Phospho-p90 RSK ELISA using A375 (Braf V600E) cells
- Format: cell-based
- condition info: Homo sapiens, A-375, 2 hours compound treatment, read-out: Cellular Phospho-p90RSK IC50
observable: IC50

> print(dat)
                                   molecule     test.result
1  Cc1cc(-c2n[nH]c3cc4c(cc23)CN([C@@H]2CN(C)C[C@H]2c2ccccc2)C(=O)N4)cc(C)n1 (racemic)        ≤ 250 nM
2  Cc1cc(-c2n[nH]c3cc4[nH]c(=O)c(C5CCCN(Cc6cc(F)ccc6F)C5)cc4cc23)ccn1 (stereo not shown)        ≤ 250 nM
3  Cc1cc(-c2n[nH]c3cc4c(cc23)CN([C@@H]2CCCN(Cc3cc(C)no3)C2)C(=O)N4)ccn1  250 to 1000 nM
4  COc1cc(-c2n[nH]c3cc4c(cc23)CN([C@@H]2CN(C)C[C@H]2c2ccccc2)C(=O)N4)ccn1 (mixture of isomers)        ≤ 250 nM
5  Cc1cc(-c2n[nH]c3cc4c(cc23)CN([C@@H]2CCCN(Cc3cnn(C)c3)C2)C(=O)N4)ccn1       > 1000 nM
6  Cc1cc(-c2n[nH]c3cc4c(cc23)CN([C@@H]2CN(CC(F)(F)F)C[C@H]2c2cccs2)C(=O)N4)ccn1 (mixture of isomers)        ≤ 250 nM
7  Cc1cc(-c2n[nH]c3cc4c(cc23)CN(C2CCNCC2)C(=O)N4)ccn1       > 1000 nM

----------
- Tested on: A375 cells
- protocol summary: Tumor cell line proliferation assay (CellTiter Glo), A375
- Format: cell-based
- condition info: Homo sapiens, A-375, 96 h, read-out: A375 (V599E) Cell Proliferation IC50
observable: IC50

> print(dat)
                                   compound     test.result
1  Cc1cc(-c2n[nH]c3cc4c(cc23)CN(Cc2cccc(Cl)c2)C(=O)N4)ccn1        ≤ 250 nM
2  Cc1cc(-c2n[nH]c3cc4c(cc23)CN(Cc2ccc(C(F)(F)F)cc2)C(=O)N4)ccn1  250 to 1000 nM
3  Cc1cc(-c2n[nH]c3cc4c(cc23)CN(Cc2ccc(Cl)cc2)C(=O)N4)ccn1  250 to 1000 nM
4  CC(c1ccccc1)c1cc2cc3c(NC4CCOCC4)n[nH]c3cc2[nH]c1=O (stereo not shown)        ≤ 250 nM

----------
- System: A375 cells
- protocol summary: Tumor cell line proliferation assay (CellTiter Glo), A375
- Format: cell-based
- condition info: Homo sapiens, A-375, 96 h, read-out: A375 (V599E) Cell Proliferation IC50
The entries below come with measured IC50 values attached.
observable: IC50

> print(dat)
                                   molecule     test.result
1  Cc1cc(-c2n[nH]c3cc4c(cc23)CN([C@@H]2CCN(C(C)C(F)(F)F)C2)C(=O)N4)ccn1 (stereo partly shown)        ≤ 250 nM
2  Cc1cc(-c2n[nH]c3cc4c(cc23)CN([C@@H]2CCCN(CC(F)(F)F)C2)C(=O)N4)cc(C)n1        ≤ 250 nM
3  Cc1cc(-c2n[nH]c3cc4c(cc23)CN([C@@H]2CCCN(Cc3ccsc3)C2)C(=O)N4)ccn1        ≤ 250 nM
4  COc1ncc(-c2n[nH]c3cc4[nH]c(=O)c(C5CCCN(Cc6ccccc6)C5)cc4cc23)cn1 (stereo not shown)        ≤ 250 nM
5  Cc1cc(-c2n[nH]c3cc4c(cc23)CN([C@@H]2CCCN(Cc3csc(C)n3)C2)C(=O)N4)ccn1  250 to 1000 nM
6  Cc1cc(-c2n[nH]c3cc4c(cc23)CN(CC2CCCC2)C(=O)N4)ccn1        ≤ 250 nM
7  Cc1cc(-c2n[nH]c3cc4c(cc23)CN([C@@H]2CN(CC(F)(F)F)C[C@H]2c2ccccc2F)C(=O)N4)ccn1 (racemic)  250 to 1000 nM

----------
- Tested on: phospho-p90 RSK (RSK1 Thr359/Ser363) in A375 (Braf V600E) cells
- protocol summary: Phospho-p90 RSK ELISA using A375 (Braf V600E) cells
- Format: cell-based
- condition info: Homo sapiens, A-375, 2 hours compound treatment, read-out: Cellular Phospho-p90RSK IC50
pIC50: −log10 of the molar value.
observable: pIC50

> print(dat)
                                   compound  observable   test.result
1  Cc1cc(-c2n[nH]c3cc4c(cc23)CN([C@@H]2CCCN(CC(=O)C(C)(C)C)C2)C(=O)N4)ccn1       pIC50  6.00 to 6.60
2  O=C1Nc2cc3[nH]nc(-c4ccnnc4)c3cc2CN1Cc1ccc(F)cc1       pIC50  6.00 to 6.60
3  Cc1cc(-c2n[nH]c3cc4c(cc23)CN([C@@H]2CCCN(CCc3ccc(F)cc3)C2)C(=O)N4)ccn1       pIC50        < 6.00
4  Cc1cc(-c2n[nH]c3cc4c(cc23)CN(CCNCc2ccc(F)c(Cl)c2)C(=O)N4)ccn1       pIC50        < 6.00
5  Cc1cc(-c2n[nH]c3cc4c(cc23)CN([C@@H]2CCCN(Cc3ccc(F)cn3)C2)C(=O)N4)ccn1       pIC50        ≥ 6.60
6  Cc1cc(-c2n[nH]c3cc4c(cc23)CN(CCc2ccc(F)cc2)C(=O)N4)ccn1       pIC50        ≥ 6.60
7  Cc1cc(-c2n[nH]c3cc4c(cc23)CN(C2CCOC(C)(C)C2)C(=O)N4)ccn1 (centres unmarked)       pIC50  6.00 to 6.60
8  Cc1cc(-c2n[nH]c3cc4[nH]c(=O)c(Cc5ccccc5)cc4cc23)ccn1       pIC50        ≥ 6.60
